Values from patent US12187816B2

Biological target: BRD4 (Homo sapiens)
Construct: Mean 488 intensity of BRD4 quantitated in nuclear region; endogenous in cells; host or cells: EoL-1 eosinophilic leukemia cells
Test: BRD4 degradation assay in EOL1 cells (immunofluorescence imaging)
Format: cell-based
Conditions: EoL-1 eosinophilic leukemia cells, 4 hours treatment, nuclear BRD4 immunofluorescence
Positions of bridges follow the written chain, without caps; N, C: chain ends. Non-standard residues stand in square brackets, D forms with d. Residues, ends and D or L forms follow the SMILES beside them. *: point of attachment. JQ1acid = Cc1sc2c(c1C)C(c1ccc(Cl)cc1)=N[C@@H](CC(=O)*)c1nnc(C)n1-2; Phg(4-(4-Me-thiazol-5-yl)) = Cc1ncsc1-c1ccc([C@H](N)C(=O)O)cc1; dBip = N[C@H](Cc1ccc(-c2ccccc2)cc1)C(=O)O; Hyp = O=C(O)[C@@H]1C[C@@H](O)CN1; d4Pal = N[C@H](Cc1ccncc1)C(=O)O; Tle = CC(C)(C)[C@H](N)C(=O)O; dDab = NCC[C@@H](N)C(=O)O; dDap = NC[C@@H](N)C(=O)O; AEA = NCCOCC(=O)O

{"columns": ["compound", "DC50"],
 "data": [
  ["Cc1sc2c(c1C)C(c1ccc(Cl)cc1)=N[C@@H](CC(=O)NC[C@H]1NC(=O)[C@@H](Cc3ccncc3)NC(=O)[C@@H](Cc3ccc(-c4ccccc4)cc3)NC(=O)[C@@H]3C[C@@H](O)CN3C(=O)[C@H](C(C)(C)C)NC(=O)COCCNC1=O)c1nnc(C)n1-2 [Compound 43] (cyclo([AEA][Tle][Hyp][dBip][d4Pal][dDap](JQ1acid)))", "< 0.05 µM"],
  ["Cc1ncsc1-c1ccc([C@@H]2NC(=O)[C@@H]3C[C@@H](O)CN3C(=O)[C@H](C(C)(C)C)NC(=O)CSC[C@H](C(N)=O)NC(=O)[C@@H](CCNC(=O)C[C@@H]3N=C(c4ccc(Cl)cc4)c4c(sc(C)c4C)-n4c(C)nnc43)NC(=O)CNC2=O)cc1 [Compound 10] ({CH2CO}-[Tle][Hyp][Phg(4-(4-Me-thiazol-5-yl))]G[dDab](JQ1acid)[dC]-NH2; thioether N-6)", "> 20 µM"]
]}

----------
Molecular target: BRD4 (Homo sapiens, UniProt O60885)
Construct: Mean 488 intensity of BRD4 quantitated in nuclear region; endogenous in cells; host or cells: EoL-1 eosinophilic leukemia cells
Test: BRD4 degradation assay in EOL1 cells (immunofluorescence imaging)
Type: cell-based
Details: EoL-1 eosinophilic leukemia cells, 4 hours treatment, nuclear BRD4 immunofluorescence
Positions of bridges follow the written chain, without caps; N, C: chain ends. Non-standard residues stand in square brackets, D forms with d. Residues, ends and D or L forms follow the SMILES beside them. *: point of attachment. JQ1acid = Cc1sc2c(c1C)C(c1ccc(Cl)cc1)=N[C@@H](CC(=O)*)c1nnc(C)n1-2; dPhg(4-(4-Me-thiazol-5-yl)) = Cc1ncsc1-c1ccc([C@@H](N)C(=O)O)cc1; X12 = Cc1sc2c(c1C)C(c1ccc(Cl)cc1)=N[C@H](CC(=O)*)c1nnc(C)n1-2; dBip = N[C@H](Cc1ccc(-c2ccccc2)cc1)C(=O)O; Hyp = O=C(O)[C@@H]1C[C@@H](O)CN1; Tle = CC(C)(C)[C@H](N)C(=O)O; dDap = NC[C@@H](N)C(=O)O; AEA = NCCOCC(=O)O
endpoint.label: DC50

{"columns": ["compound", "endpoint.label", "reported.measurement"],
 "data": [
  ["Cc1sc2c(c1C)C(c1ccc(Cl)cc1)=N[C@@H](CC(=O)NC[C@H]1NC(=O)[C@@H](Cc3ccccc3)NC(=O)[C@@H](Cc3ccc(-c4ccccc4)cc3)NC(=O)[C@@H]3C[C@@H](O)CN3C(=O)[C@H](C(C)(C)C)NC(=O)COCCNC1=O)c1nnc(C)n1-2 [Compound 44] (cyclo([AEA][Tle][Hyp][dBip][dF][dDap](JQ1acid)))", "DC50", "< 0.05 µM"],
  ["Cc1ncsc1-c1ccc([C@H]2NC(=O)[C@@H]3C[C@@H](O)CN3C(=O)[C@H](C(C)(C)C)NC(=O)CSC[C@H](C(N)=O)NC(=O)[C@@H](CNC(=O)C[C@H]3N=C(c4ccc(Cl)cc4)c4c(sc(C)c4C)-n4c(C)nnc43)NC(=O)CNC2=O)cc1 [Compound 53] ({CH2CO}-[Tle][Hyp][dPhg(4-(4-Me-thiazol-5-yl))]G[dDap](X12)[dC]-NH2; thioether N-6)", "DC50", "> 20 µM"]
]}
